Biological target: human GLP-1R (Homo sapiens (Human), UniProt P43220, L260F)
Sequence (P43220 24-463 L260F): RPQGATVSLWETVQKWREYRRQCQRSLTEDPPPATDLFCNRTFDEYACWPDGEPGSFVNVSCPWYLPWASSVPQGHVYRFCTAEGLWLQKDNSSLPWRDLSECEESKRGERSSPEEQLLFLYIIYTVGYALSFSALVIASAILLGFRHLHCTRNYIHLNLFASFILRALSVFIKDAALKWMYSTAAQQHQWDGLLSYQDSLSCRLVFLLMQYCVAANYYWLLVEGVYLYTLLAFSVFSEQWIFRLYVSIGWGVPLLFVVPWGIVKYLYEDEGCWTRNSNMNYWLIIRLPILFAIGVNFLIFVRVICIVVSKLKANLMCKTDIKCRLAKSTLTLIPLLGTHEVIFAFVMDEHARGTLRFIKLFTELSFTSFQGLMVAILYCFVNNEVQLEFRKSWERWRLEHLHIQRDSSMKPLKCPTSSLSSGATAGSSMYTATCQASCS
Assay: CHO GLP-1R Clone C6—Assay 2: HTRF cAMP cell-based functional agonist assay (low GLP-1R density)
Conditions: CHO GLP-1R Clone C6; relative to saturating concentration of full agonist GLP-1 (1 μM); arithmetic mean; read-out: Assay 2 Emax (%)
Respond with label 1 for Emax values of 90% and above, label 0 for values below.

O=C(O)c1ccc2nc(CN3CCC(c4cccc(OCc5ccc(Cl)cc5F)n4)CC3)n(C3CCOC3)c2c1 (centres unmarked) [Example 11A-26] : label 0

Now examine the next entry.
Q) Does the reported Emax for C[C@H]1CN(c2cccc(OCc3ccc(Cl)cc3F)n2)CCN1Cc1nc2ccc(C(=O)O)cc2n1Cc1cnco1 [Example 10A-16] fall at or above the 90% mark?
A) label 0

====

Biological target: human GLP-1R (Homo sapiens, UniProt P43220, G168S)
Sequence (P43220 24-463 G168S limits assumed): as the sequence (P43220 24-463 L260F) above, with G145S, F237L counted along it
Assay: CHO GLP-1R Clone H6—Assay 1: HTRF cAMP cell-based functional agonist assay (high GLP-1R density)
Conditions: read-out: Assay 1 EC50; CHO GLP-1R Clone H6, cAMP HTRF; geometric mean
assayMetric: pEC50
Reminder that pEC50 is minus the log10 of a molar concentration.

CC(C)n1c(CN2CCC(c3cccc(OCc4ccc(Cl)cc4F)n3)CC2)nc2ccc(C(=O)O)cc21 [Example 10A-40] : 5.92

Q) Give reported pEC50 value for `Cn1c(CN2CCC(c3cccc(OCc4ccccc4F)n3)CC2)nc2ccc(C(=O)O)cc21`
A) 6.06

Q) Give reported pEC50 value for Cc1ccc(Cn2c(CN3CCC(c4cccc(OCc5ccc(Cl)cc5F)n4)CC3)nc3ccc(C(=O)O)cc32)cn1 [Example 11A-61]
A) 5.72

Q) Give reported pEC50 value for O=C(O)c1ccc2nc(CN3CCN(c4cccc(OCc5ccc(Cl)cc5F)n4)CC3)n(C[C@H]3CCO3)c2c1 [Example 10A-48]
A) 8.07

====

Biological target: human GLP-1R (Homo sapiens, UniProt P43220, G168S)
Assay: CHO GLP-1R Clone H6—Assay 1: HTRF cAMP cell-based functional agonist assay (high GLP-1R density)
Details: read-out: Assay 1 Emax (%), CHO GLP-1R Clone H6; relative to saturating concentration of full agonist GLP-1 (1 μM); arithmetic mean
assayMetric: Emax (%)
Record the value in %, omitting the unit from your answer.

Before answering, review these 2 worked examples.
COCCn1c(CN2CCC(c3cccc(OCc4ccc(C#N)cc4)n3)CC2)nc2ccc(C(=O)O)c(F)c21 : 87
COCCn1c(CN2CCC(c3cccc(OCc4ccc(C)cc4)n3)CC2)nc2ccc(C(=O)O)cc21 : 99

Q) Write down measured Emax (human GLP-1R (Homo sapiens, UniProt P43220, G168S)) for this compound. O=C(O)c1ccc2nc(CN3CCC(c4cccc(OCc5ccc(Cl)cc5F)n4)CC3)n(Cc3cocn3)c2c1 [Example 10A-41]
A) 75

Q) Write down measured Emax (human GLP-1R (Homo sapiens, UniProt P43220, G168S)) for this compound. `O=C(O)c1ccc2nc(CN3CCC(c4cccc(OCc5ccc(Cl)cc5F)n4)CC3)n(Cc3ncco3)c2n1`
A) 80

Q) Write down measured Emax (human GLP-1R (Homo sapiens, UniProt P43220, G168S)) for this compound. N#Cc1ccc(COc2cccc(N3CCN(Cc4nc5ccc(C(=O)O)nc5n4C[C@@H]4CCO4)CC3)n2)c(F)c1 [Example 10A-77]
A) 100

Q) Write down measured Emax (human GLP-1R (Homo sapiens, UniProt P43220, G168S)) for this compound. Cc1cc(Cn2c(CN3CCC(c4cccc(OCc5ccc(Cl)cc5F)n4)CC3)nc3ccc(C(=O)O)cc32)no1 [Example 11A-35]
A) 74

Q) Write down measured Emax (human GLP-1R (Homo sapiens, UniProt P43220, G168S)) for this compound. `N#Cc1ccc(COc2cccc(C3CCN(Cc4nc5ccc(C(=O)O)cc5n4C[C@@H]4CCCO4)CC3)n2)c(F)c1`
A) 77

Q) Write down measured Emax (human GLP-1R (Homo sapiens, UniProt P43220, G168S)) for this compound. C[C@H]1CN(c2cccc(OCc3ccc(F)cc3F)n2)CCN1Cc1nc2ccc(C(=O)O)cc2n1C[C@@H]1CCO1 [Example 10A-58]
A) 70

Q) Write down measured Emax (human GLP-1R (Homo sapiens, UniProt P43220, G168S)) for this compound. COCc1cc(Cn2c(CN3CCC(c4cccc(OCc5ccc(Cl)cc5F)n4)CC3)nc3ccc(C(=O)O)cc32)[nH]n1 [Example 11A-62]
A) 87

Q) Write down measured Emax (human GLP-1R (Homo sapiens, UniProt P43220, G168S)) for this compound. C[C@H]1CN(c2cccc(OCc3ccc(Cl)cc3F)n2)CCN1Cc1nc2ccc(C(=O)O)nc2n1C[C@@H]1CCO1 [Example 10A-10]
A) 84

Q) Write down measured Emax (human GLP-1R (Homo sapiens, UniProt P43220, G168S)) for this compound. O=C(O)c1ccc2nc(CN3CCN(c4cccc(OCc5ccc(Cl)cc5F)n4)CC3)n(C[C@H]3CCO3)c2c1 [Example 10A-48]
A) 64

Q) Write down measured Emax (human GLP-1R (Homo sapiens, UniProt P43220, G168S)) for this compound. O=C(O)c1ccc2nc(CN3CCC(c4cccc(OCc5ccc(Cl)cc5F)n4)CC3)n(Cc3ccc(Cl)cn3)c2c1 [Example 11A-02]
A) 100

Q) Write down measured Emax (human GLP-1R (Homo sapiens, UniProt P43220, G168S)) for this compound. O=C(O)c1ccc2nc(CN3CCC(c4cccc(OCc5ccc(Cl)cc5F)n4)CC3)n(Cc3ccon3)c2c1 [Example 11A-69]
A) 76

Q) Write down measured Emax (human GLP-1R (Homo sapiens, UniProt P43220, G168S)) for this compound. `C[C@H]1CN(c2cccc(OCc3ccc(C#N)cc3F)n2)CCN1Cc1nc2ccc(C(=O)O)nc2n1Cc1ncco1`
A) 88

Values compiled from patent US10208019B2.
